Each recorded value in this set is attributed to ChEMBL document CHEMBL1150882.

- target desc: Uncharacterized protein (Sus scrofa)
- Sequence (I3LIR5 whole entry): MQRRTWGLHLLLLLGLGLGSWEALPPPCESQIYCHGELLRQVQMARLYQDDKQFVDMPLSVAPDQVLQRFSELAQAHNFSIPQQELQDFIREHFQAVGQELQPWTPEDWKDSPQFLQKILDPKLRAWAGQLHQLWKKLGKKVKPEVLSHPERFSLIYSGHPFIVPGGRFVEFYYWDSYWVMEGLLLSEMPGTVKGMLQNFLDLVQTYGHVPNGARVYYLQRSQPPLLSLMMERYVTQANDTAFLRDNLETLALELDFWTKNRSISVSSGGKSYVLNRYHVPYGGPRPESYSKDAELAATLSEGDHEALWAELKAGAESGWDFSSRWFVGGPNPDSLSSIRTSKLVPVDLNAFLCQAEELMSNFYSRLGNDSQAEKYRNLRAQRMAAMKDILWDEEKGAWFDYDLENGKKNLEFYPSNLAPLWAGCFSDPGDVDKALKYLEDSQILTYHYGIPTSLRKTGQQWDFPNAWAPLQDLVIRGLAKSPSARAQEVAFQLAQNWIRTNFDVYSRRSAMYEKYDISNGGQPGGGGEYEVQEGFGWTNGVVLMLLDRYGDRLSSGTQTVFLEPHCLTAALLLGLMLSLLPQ
readout type: pIC50
FYI, pIC50 means -log10 of a concentration in mol per litre.

Q: Reported pIC50, molecule OCC(O)[C@H]1N[C@H](CO)[C@@H](O)[C@@H]1O (mixture of isomers) : ____
Ans: 5.30

----------
- assay name: Inhibition of rice alpha-glucosidase
- Design: species or system Oryza sativa
readout type: IC50 (µM)
Provide only the numeric value, understood in µM.

Q: Reported IC50, compound OC[C@H]1N[C@H](CO)[C@@H](O)[C@@H]1O : ____
Ans: 200

Q: Here is the next compound: OCC[C@H]1N[C@H](CO)[C@@H](O)[C@@H]1O
Ans: 2.2

Q: Here is the next compound: OCC(O)[C@H]1N[C@H](CO)[C@@H](O)[C@@H]1O (mixture of isomers)
Ans: 130

----------
So I've got a bunch of compounds here, and I need their pKi values.
- assay name: Inhibition of yeast alpha-glucosidase
- Set-up: species or system Saccharomyces cerevisiae
FYI, pKi means -log10 of a concentration in mol per litre.

Q: Reported pKi, compound OCC(O)[C@H]1N[C@H](CO)[C@@H](O)[C@@H]1O (mixture of isomers) : ____
Ans: 4.27

Q: Here is the next compound: OC[C@H]1N[C@H](CO)[C@@H](O)[C@@H]1O
Ans: 5.15
